Each record here notes measured self-cleavage.
B1: Twister Ribozyme (parent)
chain: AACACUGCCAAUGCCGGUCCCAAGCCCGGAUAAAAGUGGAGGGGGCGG

variants of: B1; experiment: self-cleavage, relative activity (ratio to wild type); higher = more cleavage; co-transcriptional

>  <variant.spec>
C19A G42U

>  <self-cleavage>
0.103

$$$$
>  <variant.spec>
G24U G38A

>  <self-cleavage>
0.0987

$$$$
>  <variant.spec>
G38C G45U

>  <self-cleavage>
0.719

$$$$
>  <variant.spec>
A1C U12C

>  <self-cleavage>
0.144

$$$$
>  <variant.spec>
C26A A30C

>  <self-cleavage>
0.0881

$$$$
>  <variant.spec>
G42C C46U

>  <self-cleavage>
0.463

$$$$
>  <variant.spec>
U6A A22G

>  <self-cleavage>
0.0598

$$$$
>  <variant.spec>
C3G U6C

>  <self-cleavage>
0.0367

$$$$
>  <variant.spec>
C5G G45A

>  <self-cleavage>
0.475

$$$$
>  <variant.spec>
A33G G36C

>  <self-cleavage>
0.303

$$$$
>  <variant.spec>
A2G G41A

>  <self-cleavage>
0.102

$$$$
>  <variant.spec>
U31G G48A

>  <self-cleavage>
0.992

$$$$
>  <variant.spec>
C9U U31A

>  <self-cleavage>
0.667

$$$$
>  <variant.spec>
G38C A40C

>  <self-cleavage>
0.134

$$$$
>  <variant.spec>
G36U G39U

>  <self-cleavage>
0.147

$$$$
>  <variant.spec>
A30U U37G

>  <self-cleavage>
0.912

$$$$
>  <variant.spec>
G13U G44U

>  <self-cleavage>
0.428

$$$$
>  <variant.spec>
G17U C27A

>  <self-cleavage>
0.148

$$$$
>  <variant.spec>
C21G G39A

>  <self-cleavage>
0.0549

$$$$
>  <variant.spec>
C20A G47U

>  <self-cleavage>
0.103

$$$$
>  <variant.spec>
G13C G42U

>  <self-cleavage>
0.112

$$$$
>  <variant.spec>
G17A U18A

>  <self-cleavage>
0.18

$$$$
>  <variant.spec>
A10U A35G

>  <self-cleavage>
0.808

$$$$
>  <variant.spec>
C46A G47U

>  <self-cleavage>
0.832

$$$$
>  <variant.spec>
C14A G42A

>  <self-cleavage>
0.417

$$$$
>  <variant.spec>
G24A U31G

>  <self-cleavage>
0.105

$$$$
>  <variant.spec>
G13U C19G

>  <self-cleavage>
0.0472

$$$$
>  <variant.spec>
A10C G29C

>  <self-cleavage>
0.845

$$$$
>  <variant.spec>
U37C G42U

>  <self-cleavage>
0.127

$$$$
>  <variant.spec>
C19A U37G

>  <self-cleavage>
0.0778

$$$$
>  <variant.spec>
A1U A40G

>  <self-cleavage>
0.074

$$$$
>  <variant.spec>
C5A C25A

>  <self-cleavage>
0.068

$$$$
>  <variant.spec>
C9U C25G

>  <self-cleavage>
0.113

$$$$
>  <variant.spec>
A1G C3A

>  <self-cleavage>
0.349

$$$$
>  <variant.spec>
A2U G47A

>  <self-cleavage>
0.292

$$$$
>  <variant.spec>
C3A U6G

>  <self-cleavage>
0.121

$$$$
>  <variant.spec>
A10C G36U

>  <self-cleavage>
0.722

$$$$
>  <variant.spec>
C21U G28A

>  <self-cleavage>
0.102

$$$$
>  <variant.spec>
G13C C27G

>  <self-cleavage>
0.104

$$$$
>  <variant.spec>
A1G G7C

>  <self-cleavage>
0.0808

$$$$
>  <variant.spec>
U6C C21G

>  <self-cleavage>
0.109

$$$$
>  <variant.spec>
A32C G39C

>  <self-cleavage>
0.079

$$$$
>  <variant.spec>
C20G G28A

>  <self-cleavage>
0.141

$$$$
>  <variant.spec>
A11C G16C

>  <self-cleavage>
0.187

$$$$
>  <variant.spec>
C27A G45U

>  <self-cleavage>
0.207

$$$$
>  <variant.spec>
A11C G38A

>  <self-cleavage>
0.768

$$$$
>  <variant.spec>
C27G G44U

>  <self-cleavage>
0.0884

$$$$
>  <variant.spec>
G24C G29U

>  <self-cleavage>
0.0988

$$$$
>  <variant.spec>
G42U G47A

>  <self-cleavage>
0.242

$$$$
>  <variant.spec>
G7A A32U

>  <self-cleavage>
0.507

$$$$
>  <variant.spec>
G13U C25A

>  <self-cleavage>
0.0642

$$$$
>  <variant.spec>
C9A G39C

>  <self-cleavage>
0.119

$$$$
>  <variant.spec>
G13A C26A

>  <self-cleavage>
0.095

$$$$
>  <variant.spec>
C20U G29C

>  <self-cleavage>
0.305

$$$$
>  <variant.spec>
A23U G43U

>  <self-cleavage>
0.112

$$$$
>  <variant.spec>
A11U A33G

>  <self-cleavage>
0.839

$$$$
>  <variant.spec>
C27G G48U

>  <self-cleavage>
0.0985

$$$$
>  <variant.spec>
C25G G42A

>  <self-cleavage>
0.118

$$$$
>  <variant.spec>
U6C G38C

>  <self-cleavage>
0.249

$$$$
>  <variant.spec>
A1G C46U

>  <self-cleavage>
0.393

$$$$
>  <variant.spec>
C20A G29U

>  <self-cleavage>
0.103

$$$$
>  <variant.spec>
A2U C27A

>  <self-cleavage>
0.124

$$$$
>  <variant.spec>
C8A G29C

>  <self-cleavage>
0.0825

$$$$
>  <variant.spec>
C8G C21U

>  <self-cleavage>
0.0624

$$$$
>  <variant.spec>
C20A C26A

>  <self-cleavage>
0.0889

$$$$
>  <variant.spec>
U12A G43C

>  <self-cleavage>
0.255

$$$$
>  <variant.spec>
G7C A30G

>  <self-cleavage>
0.0729

$$$$
>  <variant.spec>
G28C G44A

>  <self-cleavage>
0.782

$$$$
>  <variant.spec>
A22G G29A

>  <self-cleavage>
0.221

$$$$
>  <variant.spec>
C26A C46U

>  <self-cleavage>
0.624

$$$$
